Source listed as the nanobody polyreactivity screen of Harvey et al. (2022).

- ASSAY_EXPLANATION: yeast display, Sf9 membrane polyspecificity reagent, FACS + sequencing; frameworks hold sequencing errors
VALUE_KIND: polyreactivity (PSR sort gate)

What measured polyreactivity (PSR sort gate) goes with `QVQLVESGGGLVQAGGSLRLSCAASGITFYFYAMGCERQAPGKERELVAAINRSGSSTYYADSVKGRFTISRDNAKTSVYLQMNSLNPEDTAVYYFAAGWYPWAYEDWGQGTQVTVTS` ?
high polyreactivity

What measured polyreactivity (PSR sort gate) goes with `QVQLVESGGGLVQAGGSLRLSCAASGSTSSNNAMGWYRQAPGKERELVADISTNGDSTSYADSVKGRFTISRDNAKNTVYLQMNSLKPEDTAVYYCAASTYVTYWEYDFWGQGTQVTVSS` ?
low polyreactivity

What measured polyreactivity (PSR sort gate) goes with `QVQLVESVGGLVQAGGSLRLSCAASGSIFFSYAMGWYRQAPGKERELVAGINWSGGSTYADSVKGRFTISRDNAKNTVYLQMNSLKPEDTAVYYCAAKYYSERSRYHYWGQGTQVTVSS` ?
low polyreactivity

What measured polyreactivity (PSR sort gate) goes with `QVQLVESGGGLVQAGGSLRLSCAASGITFCYYGMGRYRQAPGKERELVAAISSGGRTYYADSVKGRFTISRDNAKNTVYLQMNSLNPEDSAVYYCADRTKYIFVYQGVYWGQGTQVTVSS` ?
high polyreactivity
